FYI, the data here is from ChEMBL document CHEMBL2146397.

Target: Insulin-like growth factor 1 receptor (Homo sapiens, UniProt P08069)
Sequence (P08069 31-736 limits assumed): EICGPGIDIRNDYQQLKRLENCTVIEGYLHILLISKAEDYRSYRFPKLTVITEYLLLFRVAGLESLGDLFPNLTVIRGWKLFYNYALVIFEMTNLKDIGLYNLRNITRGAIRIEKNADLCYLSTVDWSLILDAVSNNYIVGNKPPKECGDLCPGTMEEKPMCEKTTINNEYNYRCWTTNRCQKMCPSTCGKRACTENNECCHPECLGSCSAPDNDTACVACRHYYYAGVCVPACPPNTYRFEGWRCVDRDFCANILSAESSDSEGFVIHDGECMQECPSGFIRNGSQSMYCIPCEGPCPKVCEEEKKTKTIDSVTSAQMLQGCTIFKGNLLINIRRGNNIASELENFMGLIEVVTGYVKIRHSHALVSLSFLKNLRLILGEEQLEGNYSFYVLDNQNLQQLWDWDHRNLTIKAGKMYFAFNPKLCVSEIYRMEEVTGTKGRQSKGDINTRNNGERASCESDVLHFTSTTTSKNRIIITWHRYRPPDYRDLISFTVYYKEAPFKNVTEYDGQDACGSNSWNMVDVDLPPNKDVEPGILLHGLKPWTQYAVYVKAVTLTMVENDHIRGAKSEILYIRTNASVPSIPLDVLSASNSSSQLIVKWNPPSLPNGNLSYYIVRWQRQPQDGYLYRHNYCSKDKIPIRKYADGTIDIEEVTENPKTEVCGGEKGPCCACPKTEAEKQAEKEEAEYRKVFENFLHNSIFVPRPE
Sequence (P08069 741-1367 limits assumed): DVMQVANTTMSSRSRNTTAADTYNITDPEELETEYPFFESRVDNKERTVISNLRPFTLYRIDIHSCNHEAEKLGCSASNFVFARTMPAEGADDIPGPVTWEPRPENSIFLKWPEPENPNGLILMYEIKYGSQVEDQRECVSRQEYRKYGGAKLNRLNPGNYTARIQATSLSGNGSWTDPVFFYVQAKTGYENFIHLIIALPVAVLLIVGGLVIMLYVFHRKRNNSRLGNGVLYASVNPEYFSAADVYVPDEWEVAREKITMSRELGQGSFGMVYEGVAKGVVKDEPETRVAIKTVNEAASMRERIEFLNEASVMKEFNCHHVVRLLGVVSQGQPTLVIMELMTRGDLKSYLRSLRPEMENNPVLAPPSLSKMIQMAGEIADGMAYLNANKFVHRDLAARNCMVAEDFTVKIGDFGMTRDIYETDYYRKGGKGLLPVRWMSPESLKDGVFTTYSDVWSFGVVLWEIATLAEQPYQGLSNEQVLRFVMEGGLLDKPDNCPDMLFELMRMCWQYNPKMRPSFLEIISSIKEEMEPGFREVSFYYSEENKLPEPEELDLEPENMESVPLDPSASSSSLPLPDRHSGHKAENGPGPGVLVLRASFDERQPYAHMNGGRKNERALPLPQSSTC
Experiment: Activity at pre-activated human GST-His6-tagged IGF-1R expressed in Sf9 cells assessed as initial phosphorylation rate at 10 uM measured every 2 mins for 60 mins by Michaelis-Menten constant based ADP Quest assay
Square brackets hold non-standard residues; d marks the D form. Peptide text beside a SMILES is read from it. Trp(6-Cl) = N[C@@H](Cc1c[nH]c2cc(Cl)ccc12)C(=O)O; 3Pal = N[C@@H](Cc1cccnc1)C(=O)O
Recorded measurements of Activity, one per entry
Use nM/s as the unit, but write only the number.

# example entries with known answers
INSERT INTO results (molecule, observed) VALUES
  ('CNC(=O)[C@H](Cc1ccccc1)NC(=O)[C@H](CCC(=O)O)NC(=O)[C@H](Cc1ccccc1)NC(=O)[C@H](Cc1ccc(O)cc1)NC(=O)[C@@H]1CCC[C@H]1C(=O)O (HELM PEPTIDE1{[O=C(O)[C@@H]1CCC[C@H]1C(=O)[*:2]].Y.F.E.F.[CN[*:1]]}$$$$V2.0)', 3.8),
  ('CNC(=O)[C@H](Cc1c[nH]c2cc(Cl)ccc12)NC(=O)[C@H](CCC(=O)O)NC(=O)[C@H](Cc1ccccc1)NC(=O)[C@H](Cc1ccc(O)cc1)NC(=O)[C@H](CCC(=O)O)NC(C)=O (HELM PEPTIDE1{[ac].E.Y.F.E.[O=C([C@H](Cc1c[nH]c2cc(Cl)ccc12)N[*:1])[*:2]].[CN[*:1]]}$$$$V2.0)', 3.3),
  ('CNC(=O)[C@@H](Cc1c[nH]c2ccccc12)NC(=O)[C@H](CCC(=O)O)NC(=O)[C@H](Cc1ccccc1)NC(=O)[C@H](Cc1ccc(O)cc1)NC(=O)[C@H](CC(=O)O)NC(C)=O', 0.28);

Name the reported Activity value associated with the molecule "CNC(=O)[C@@H](Cc1c[nH]c2ccccc12)NC(=O)CNC(=O)[C@H](Cc1ccccc1)NC(=O)[C@H](Cc1ccc(O)cc1)NC(=O)[C@H](CC(=O)O)NC(C)=O"
0.09

Name the reported Activity value associated with the molecule CNC(=O)[C@H](Cc1c[nH]c2ccccc12)NC(=O)[C@H](CCC(=O)O)NC(=O)[C@H](Cc1ccccc1)NC(=O)[C@H](Cc1ccc(O)cc1)NC(=O)CCC(=O)O (HELM PEPTIDE1{[O=C(O)CCC(=O)[*:2]].Y.F.E.W.[CN[*:1]]}$$$$V2.0)
1.45

Name the reported Activity value associated with the molecule CNC(=O)[C@H](Cc1c[nH]c2cc(Cl)ccc12)NC(=O)[C@H](CCC(=O)O)NC(=O)[C@H](Cc1ccccc1)NC(=O)[C@H](Cc1ccc(O)cc1)NC(=O)[C@H](Cc1cccnc1)NC(C)=O (Ac-[3Pal]YFE[Trp(6-Cl)]-NHMe)
1

Name the reported Activity value associated with the molecule "CNC(=O)[C@H](Cc1c[nH]c2ccccc12)NC(=O)CNC(=O)[C@H](Cc1ccccc1)NC(=O)[C@H](Cc1ccc(O)cc1)NC(=O)[C@H](CC(=O)O)NC(C)=O"
1.7
